B1: glmS ribozyme (parent)
chain: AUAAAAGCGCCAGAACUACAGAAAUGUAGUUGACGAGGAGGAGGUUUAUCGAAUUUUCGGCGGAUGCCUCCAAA

- Variants of: B1
- assay-name: self-cleavage kobs at 10000 uM GlcN6P; higher = faster cleavage; RNA array
- condition: with glucosamine-6-phosphate
Fewer inactive variants are shown than the library holds.
We use 0.0006 s⁻¹ as the dividing line for self-cleavage kobs at 10000 uM GlcN6P: on or above the line is rule met, below is rule not met.

variant-code: C16G U65C C71G
assigned-label: rule not met

variant-code: G41U G43A
assigned-label: rule not met

variant-code: A6G C71U
assigned-label: rule not met

variant-code: G13A C16A
assigned-label: rule not met

variant-code: G66C C70U
assigned-label: rule met

variant-code: A15G G40C
assigned-label: rule met

variant-code: A39G G41U
assigned-label: rule met

variant-code: G29A U56C
assigned-label: rule met

variant-code: A6G C16G G29C A39G G43C U47G G51U C61A
assigned-label: rule not met

variant-code: U47G A53G U57C C68U
assigned-label: rule not met

variant-code: G51U C61U
assigned-label: rule not met
